Source listed as patent US11382347B2.

# Experimental protocol: Sensory panel screening of natural coolants versus menthol in sugar solution (Example 1)
# Format: in vivo, human
# Test settings: 100 ppm in 5% sugar solution; 10 mL held 10 s; panel N=6; 9-point scale, menthol fixed as 5.0
Experimental endpoint: Cooling Relative to 100 ppm Menthol
Answer with the value's number alone.

The measured Cooling Relative to 100 ppm Menthol associated with CC1CCC(C(C)C)C(O)C1 (stereo not shown) [Menthol (Control), menthol, reference compound] reads 1.0

The measured Cooling Relative to 100 ppm Menthol associated with CC1CCC(C(C)C)C(OC(=O)C(C)O)C1 (stereo not shown) [Natural Menthyl Lactate, menthyl lactate] reads 1.1

The measured Cooling Relative to 100 ppm Menthol associated with C=C(C)C1CCC(C)CC1O (stereo not shown) [Natural Isopulegol, isopulegol] reads 0.7

The measured Cooling Relative to 100 ppm Menthol associated with CC1CCC(C(C)C)C(OC(=O)CCC(=O)O)C1 (stereo not shown) [Natural Menthyl Succinate, mono-menthyl succinate] reads 0.6
